outcome.measure: melting point

Field: example entries. Status: answers known.
INSERT INTO results (molecule, result) VALUES
  ('N#Cc1nn(-c2c(Cl)cc(C(F)(F)F)cc2Cl)c(N2CCCC2)c1S(=O)(=O)C(F)(F)F', '187 to 189 °C'),
  ('COCCOc1ccc(CCCOC(=O)NS(=O)(=O)NCCc2cccs2)c(Oc2ncc(C(F)(F)F)cc2Cl)c1', '118 °C'),
  ('CC12CC(c3ccc(OS(=O)(=O)C(F)(F)F)cc3)C3C4CCC5(CC4=CCC3C1CCC2=O)OCCO5 (stereo not given)', '208 to 210 °C');

For the molecule `Cc1[nH]c2ccccc2c1CCC(=O)N1CCC(O)(Cc2ccccc2)CC1` , report melting point. 117 to 119 °C

For the molecule `O=S1(=O)NCNc2c(Cl)cc(Cl)cc21` , report melting point. 149 to 151 °C

For the molecule `Cc1c(C(C)(C)C)cc(C(C)C)c(O)c1CO` , report melting point. 143 to 146 °C

For the molecule `C=CC(=O)Nc1ccc2c(Nc3cccc(Br)c3)ncnc2c1` , report melting point. > 265 °C

For the molecule COc1ccccc1OCC1SCCN1C(=O)CI (stereo not given) , report melting point. 81 to 83 °C

For the molecule CCCC1CCc2cc(OC)c(Cl)c(Cl)c2C1=O (stereo not given) , report melting point. 127 to 129 °C

For the molecule COc1ccc(Cl)cc1NC(=O)[C@H]1[C@H](c2ccc(S(N)(=O)=O)c(C)c2)C1(C)C (relative stereo) , report melting point. 118 to 121 °C
